Target: T1, cynomolgus PD-1 recombinant protein (Acro Biosystems cat no. PD-1-C5254) (cynomolgus)
T1 construct: Bought protein; also called cyno PD1
Test: HTRF binding assay, 2 nM recombinant PD1, anti His-D2 and anti human-Fc cryptate
measured.property: pEC50
Here pEC50 is given on a logarithmic scale as minus log10 of the concentration in mol/L.

The cases that follow already have their pEC50 on record.
1) 1.1b-6GS-1.1a (other, Biparatopic VH-linker-VH) QVQLVESGGGLVKPGGSLRLSCAASGFTFSDYTMTWMRQAPGKGLEWVSYISTGGTIKYYTDSVKGRFTISRDNAKNSLYLQMNSLRADDTAVYYCAREAPLRLGESPHDAFDIWGQGTMVTVSSGGGGSGGGGSGGGGSGGGGSGGGGSGGGGSEVQLLESGGGSVQPGRSLRLSCAASGFTFDDHAMHWVRQAPGKGLEWVSGISWNSGSMGYADSVKDRFTISRDNAKSSLYLQMNSLRAEDTALYYCVREKGPGLTGSTADYYGLDVWGQGTMVTVSS : 9.04
2) 1.92b-4GS-1.39a (other, Biparatopic VH-linker-VH; built from its parts here because it is not clear whether 1112 is the protein or the nucleic acid) EVQLVESGGGLVKPGGSLRLSCAASGFTFSDESMTWMRQAPGKGLEWVSYISSGGGVKFYADSVKGRFTISRDNAKNSLYLQMNSLRAEDTAVYYCAREAPLRLGESPHDAFDISGQGTMVTVSSGGGGSGGGGSGGGGSGGGGSEVQLVESGGGLVQPGRSLRLSCAASGFTFDDYALHWVRQAPGKDLEWVSGISWNGGSYGYADSVKGRFTISRDNAKNSLYLQMNSLRAEDTALYYCVREKGPGLTGSTADYYGLDAWGQGTMVTVSS : 8.43
3) 1.92b-4GS-1.62a (other, Biparatopic VH-linker-VH; also called 1.92-4GS-1.62a; 1.92b-4gs-2.12a) EVQLVESGGGLVKPGGSLRLSCAASGFTFSDESMTWMRQAPGKGLEWVSYISSGGGVKFYADSVKGRFTISRDNAKNSLYLQMNSLRAEDTAVYYCAREAPLRLGESPHDAFDISGQGTMVTVSSGGGGSGGGGSGGGGSGGGGSEVQLVESGGGVVRPGGSLRLSCAASGFTFDDYAMSWVRQAPGKGLEWVSGITWNAGSTGYADSVKGRFTISRDNAKNSLYLQMNSLRAEDTALYYCVRDKYSYAWSYDDFDIWGQGTMVTVSS : 8.41

Next binder, please.
Please give the measured pEC50 for this binder: 1.57b-4GS-1.1a (other, Biparatopic VH-linker-VH) QVQLVESGGGLVKPGGSLRLSCAASGFTFSDNSMTWMRQAPGKGLEWVSYISSGGGVIFYADSVKGRFTISRDNAKNSLYLQMNSLRADDTAVYYCAREAPLRLGESPHDAFDISGQGTMVTVSSGGGGSGGGGSGGGGSGGGGSEVQLLESGGGSVQPGRSLRLSCAASGFTFDDHAMHWVRQAPGKGLEWVSGISWNSGSMGYADSVKDRFTISRDNAKSSLYLQMNSLRAEDTALYYCVREKGPGLTGSTADYYGLDVWGQGTMVTVSS 8.68
